Species: Bos taurus
Test: Displacement of ethidium from calf thymus DNA by fluorimetric method
quantity name: C50 (µM)
One number for each entry, in µM.

State its C50: `C[n+]1ccc(-c2ccc(-c3ccc(-c4ccc(/N=N/Nc5ccc(C(=O)Nc6ccc(-c7ccc(-c8ccc(-c9cc[n+](C)cc9)cc8)cc7)cc6)cc5)cc4)cc3)cc2)cc1.Cc1ccc(S(=O)(=O)[O-])cc1.Cc1ccc(S(=O)(=O)[O-])cc1`
0.83

Next, consider the following compound.
State its C50: `C[n+]1cccc(NC(=O)c2ccc(NC(=O)c3ccc(C(=O)Nc4ccc(C(=O)Nc5ccc[n+](C)c5)c(Cl)c4)cc3)cc2Cl)c1.Cc1ccc(S(=O)(=O)[O-])cc1.Cc1ccc(S(=O)(=O)[O-])cc1`
1.4
